# ASSAY_PROTOCOL: melting temperature; fluorescence melt of hairpins on a sequencing array, two-state fit, raised by 9.35 °C to match UV melts
# EXPERIMENTAL_CONDITIONS: sodium 0.088 M
Tm vs 40 °C: at or above is fulfilled, below is not fulfilled.

SEQUENCE_CONTENT	CLASS_NAME
GGACCCTCGAAAGAGTCC (((..(((....))))))	not fulfilled
GATCAGAACCTGATC ((((((...))))))	fulfilled
GTACCCCGAAAGGGATAC (((.(((....))).)))	fulfilled
GCGATAGGAAACTACCGC (((.(((....))).)))	fulfilled
CATTCGAAAGAATG (((((....)))))	fulfilled
GGTTCCCGAAAGGGACC (((.(((....))))))	fulfilled
GCTGGGCGAAAGCATAGC (((..((....))..)))	fulfilled
GTAGGCGAAAGCCACTAC ((((((....)))..)))	fulfilled
GTTATTGGAAACAATAAC (((((((....)))))))	fulfilled
GTTCTCGAAAGAGGAAC ((((((....))).)))	not fulfilled
GATCCCATGGGGGATC ((((((....))))))	fulfilled
GGTCTCGCGAAAGCGACC (((..(((....))))))	not fulfilled
GTACGCGAAAGCGTGTAC ((((((....)))..)))	not fulfilled
GCATTCGAAAGAAGATGC ((((((....)))..)))	not fulfilled
GATCATCCCGATGATC ((((((....))))))	fulfilled
GTGGCCGAAAGGCAGCAC ((((((....)))..)))	fulfilled

###

# ASSAY_PROTOCOL: melting temperature; fluorescence melt of hairpins on a sequencing array, two-state fit, raised by 9.35 °C to match UV melts
# EXPERIMENTAL_CONDITIONS: sodium 0.088 M
MEASUREMENT_TYPE: Tm (°C)

SEQUENCE_CONTENT	NUMERIC_READOUT
GAAAGCGAAAGCTTTTTC ((((((....)))..)))	49
GCCTTGGGAAACTAAGGC (((((.(....).)))))	50.9
GATCCTCCGAAGGATC ((((((....))))))	48.7
GGCGACGAAAGTCGTGCC ((((((....)))..)))	51.2
GCAGGCGAAAGCCAGTGC ((((((....)))..)))	49.5
GCAGGAGGAAACCCCTGC (((((.(....).)))))	50.9

###

Recorded folding enthalpy for the following sequences
# ASSAY_PROTOCOL: folding enthalpy; higher = less favourable; fluorescence melt of hairpins on a sequencing array, two-state fit
# EXPERIMENTAL_CONDITIONS: sodium 0.088 M

SEQUENCE_CONTENT	folding enthalpy (kcal/mol)
GATCACGGAAGTGATC ((((((....))))))	-29.3
GGTACCGGAAACGGTACC (((((((....)))))))	-30.5
GATCAAGGTTTTGATC ((((((....))))))	-29.7

###

# ASSAY_PROTOCOL: melting temperature; fluorescence melt of hairpins on a sequencing array, two-state fit, raised by 9.35 °C to match UV melts
# EXPERIMENTAL_CONDITIONS: sodium 0.088 M
Recorded Tm for the following sequences

SEQUENCE_CONTENT	Tm / °C
GCACTTACGAAAGTATGC (((..(((....))))))	30.3
GGTGGTGGAAACATCGCC ((.(.((....)).).))	44.6
CGATTTCGGAAACGATCG (((..(((....))))))	29.6

###

# ASSAY_PROTOCOL: folding enthalpy; higher = less favourable; fluorescence melt of hairpins on a sequencing array, two-state fit
# EXPERIMENTAL_CONDITIONS: sodium 0.088 M
Category key, based on recorded folding enthalpy: small value = under -30 kcal/mol, mid value = from -30 kcal/mol up to -20 kcal/mol, large value = -20 kcal/mol and over

SEQUENCE_CONTENT	CLASS_NAME
GAAATACGAAAGTATTC (((.(((....))))))	large value
GCGATCGATCGC ((((....))))	small value
GGACTAGGAAACTAGTTC (.(((((....))))).)	small value
GGAGAGCGAAAGCTTTCC (((.(((....))).)))	small value
GGTGAAACGAAAGTTACC (((..(((....))))))	large value
GTTGGCCGAAAGGCGAAC (((.(((....))).)))	mid value
GCGTTGTGACGC ((((....))))	small value
GATCTCCCGAAAGGGATC (((..(((....))))))	large value
GACGCTGGAAACGGCGTC (((((.(....).)))))	small value
GACCATCCGAAAGGAGTC (((..(((....))))))	large value
GTTGACGGAAACGTCAGC (.(((((....))))).)	mid value
GGTGTCGAAAGACCCACC ((((((....)))..)))	large value
GGGGTAGGAAACTGCCCC ((((.((....)).))))	small value
GATCTATATGTAGATC ((((((....))))))	small value
AACATGAAAATGTT (((((....)))))	large value
CGTCAGAAATGACG (((((....)))))	mid value
GAGAGGCGAAAGCCGCTC (((.(((....))).)))	large value
AATTCGAAAGAATT (((((....)))))	large value
GCGCTCCGAAAGGACGC (((.(((....))))))	small value
GGTAAAGGAAACTTTATC (.(((((....))))).)	large value
GATCAGGTAGCTGATC ((((((....))))))	small value
AATCGGAAACGATT (((((....)))))	mid value
GCACGGCGAAAGCCACGC ((..(((....)))..))	large value
CTACAGAAATGTAG (((((....)))))	large value
GATCTCAATTGAGATC ((((((....))))))	small value

###

# ASSAY_PROTOCOL: melting temperature; fluorescence melt of hairpins on a sequencing array, two-state fit, raised by 9.35 °C to match UV melts
# EXPERIMENTAL_CONDITIONS: sodium 0.088 M
Tm vs 40 °C: at or above is met, below is not met.

SEQUENCE_CONTENT	CLASS_NAME
GGATCCGAAAGGAGTTCC ((((((....)))..)))	not met
GTATTCGAAAGAATTAC ((((((....))).)))	not met
GATCCGGGAACGGATC ((((((....))))))	met
GCACATCGAAAGATCTGC (((.(((....))).)))	not met
GTCGCTCGAAAGAGTGAC (((.(((....))).)))	met
GTTAAGCGAAAGCTAAAC (((.(((....))).)))	met
GTGCACGAAAGTGCGCAC ((((((....)))..)))	met
GAGCTCGGAAACAAGCTC (((((.(....).)))))	met
GCCGAAGGAAACCTCGGC (((((.(....).)))))	met
GCGTTACGACGC ((((....))))	met
GGATATGGAAACATATTC (.(((((....))))).)	not met
GAACGCGGAAACACGTTC (((((.(....).)))))	met
GGACTCGAAAGAGGATCC ((((((....)))..)))	not met

###

# ASSAY_PROTOCOL: melting temperature; fluorescence melt of hairpins on a sequencing array, two-state fit, raised by 9.35 °C to match UV melts
# EXPERIMENTAL_CONDITIONS: sodium 0.088 M
Tm vs 60 °C: at or above is 1, below is 0.

SEQUENCE_CONTENT	CLASS_NAME
GGCCCACGAAAGTGGCC (((.(((....))))))	1
GAGAGCGGAAACACTCTC (((((.(....).)))))	0
GTCCTGGGAAACTAGGGC (.(((.(....).))).)	0
GATCCGTAGCGGATC ((((((...))))))	0
GCCCTCGAAAGAGACGGC ((((((....)))..)))	0
GCCGGGCGAAAGCCCAGC ((.((((....)))).))	1
GCTTTGCGAAAGCGACGC ((.(.((....)).).))	0
GCCATGCGAAAGCGGGGC (((..((....))..)))	1
GGGCGAGGAAACTCACCC (((.(((....))).)))	0
GCGTGAGGAAACTCGCGC (((.(((....))).)))	1
GGTGAGCGAAAGCTAACC (((.(((....))).)))	0
GAGGTGACGAAAGTCCTC (((..(((....))))))	0
GCGATTTTTCGC ((((....))))	0
GATCTGTCGCCAGATC ((((((....))))))	0
GGAGTCGAAAGACTATCC ((((((....)))..)))	0
GCAGAGCGAAAGCTAGGC ((..(((....)))..))	0
GCCGTACCGAAAGGTGGC (((..(((....))))))	0
GTCATCGAAAGATATGAC ((((((....)))..)))	0
GCCCCGCGAAAGCAAGGC (((..((....))..)))	0
GTCCCCGAAAGGGGTGAC ((((((....)))..)))	0
